Target Or System: Chromo domain-containing protein 1 (Saccharomyces cerevisiae (strain ATCC 204508 / S288c) (Baker's yeast))
Test Method Notes: ScCHD-1 Enzyme Inhibition Assay; note: in the data most compounds retested in dose-response had high values
Assay type: functional
Parameters: scale not given: direction of the effect not stated beside the values
Test Settings: 30 µM

| Compound | Percent Effect [%] |
| --- | --- |
| O=C(Cc1ccc2c(c1)OCCO2)N1CCCC(n2ccnc2)C1 (stereo unspecified) | -24.2 |
| Cc1ccc(NC(=O)NC(C)C(=O)N2CCS(=O)(=O)CC2)cc1 (stereo unspecified) | -2.08 |
| CC(Cn1ccnc1)NC(=O)C1(c2ccc(F)cc2)CC1 (stereo unspecified) | -3.1 |
| CCO[C@@H]1CO[C@@]2(CCCN(C(=O)COc3ccccc3OC)C2)C1 | -9.93 |
| O=C(c1cccc(Cl)c1)N1CC[C@H]2[C@H]1CCN2CC1CCOCC1 | -5.25 |
| CCOC(=O)CCCNC(=O)CN1CCN(c2ncccn2)CC1 | -0.631 |

----------
Target Or System: Protein translocase subunit SecA (Escherichia coli (strain K12)) (UniProt P10408)
Sequence (P10408 whole entry): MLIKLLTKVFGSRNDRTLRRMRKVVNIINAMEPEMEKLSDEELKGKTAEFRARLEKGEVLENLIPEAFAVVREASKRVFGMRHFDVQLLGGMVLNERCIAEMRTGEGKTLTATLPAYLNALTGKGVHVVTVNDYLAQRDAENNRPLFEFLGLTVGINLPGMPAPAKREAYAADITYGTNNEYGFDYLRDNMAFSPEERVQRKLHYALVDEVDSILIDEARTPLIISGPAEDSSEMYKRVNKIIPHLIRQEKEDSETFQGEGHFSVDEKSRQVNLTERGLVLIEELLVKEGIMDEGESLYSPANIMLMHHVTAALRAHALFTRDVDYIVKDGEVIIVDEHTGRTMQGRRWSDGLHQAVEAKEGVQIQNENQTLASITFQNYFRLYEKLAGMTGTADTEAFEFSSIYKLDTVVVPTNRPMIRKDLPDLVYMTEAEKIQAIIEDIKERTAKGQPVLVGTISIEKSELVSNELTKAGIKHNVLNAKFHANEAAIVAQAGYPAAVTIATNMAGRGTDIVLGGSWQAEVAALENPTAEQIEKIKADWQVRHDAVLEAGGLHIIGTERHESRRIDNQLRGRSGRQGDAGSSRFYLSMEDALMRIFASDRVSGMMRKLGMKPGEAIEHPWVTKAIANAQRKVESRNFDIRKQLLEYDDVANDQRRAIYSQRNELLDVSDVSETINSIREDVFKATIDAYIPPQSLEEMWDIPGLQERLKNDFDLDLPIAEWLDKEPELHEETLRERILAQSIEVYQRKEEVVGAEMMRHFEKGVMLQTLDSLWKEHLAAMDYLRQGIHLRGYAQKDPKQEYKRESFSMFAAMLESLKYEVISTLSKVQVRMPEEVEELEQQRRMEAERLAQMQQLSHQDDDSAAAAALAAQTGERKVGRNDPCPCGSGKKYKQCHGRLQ
Test Method Notes: Assay to Identify E. coli SecA ATPase Inhibitors
Assay type: functional
Set-up: scale not given: direction of the effect not stated beside the values
Test Settings: 30 µM
Results with a measured potency or affinity are listed apart.

| Compound | Percent Effect [%] |
| --- | --- |
| O=C(c1cnn2c1OCCC2)N1CCN(C/C=C/c2ccccc2)CC1 | -2.24 |
| O=C(COc1cccc(Br)c1)N1CCN(c2nccs2)CC1 | -4.01 |
| O=C(NCc1ccccn1)N(Cc1ccc(F)cc1F)C1CC1 | -3.99 |
| CCc1nnc2n1CCN(CC(=O)Nc1sccc1C#N)C2 | -4.04 |
| COCc1cnc2n1CCN(C(=O)C1=CCCCC1)C2C (stereo not drawn) | 2.94 |
| O=C(CCCc1nc2ccccc2[nH]1)N1CCCC(n2cccn2)C1 (stereo not drawn) | -4.65 |
| CN(Cc1ccccn1)C(=O)[C@]12COC[C@H]1CN(Cc1cnn(C)c1)C2 | -1.75 |
| CCc1nnc2n1CCN(Cc1csc(-c3ccsc3)n1)C2 | -1.79 |
| O=C1CC(c2ccsc2)c2c(n(C3CCOCC3)[nH]c2=O)N1 (stereo not drawn) | -5.06 |
| O=C1OC2(CCN(C3CCCOC3)CC2)CN1CCc1ccccc1 (stereo not drawn) | -0.187 |
| Cc1ccc([C@@H]2CN(S(=O)(=O)c3cccs3)C[C@H]2N(C)C)cc1 | -5.74 |
| NC(=O)C1CN(Cc2c[nH]cn2)CCN(C2CCOCC2)C1 (stereo not drawn) | 1.35 |
| COc1ccc(C)cc1NC(=O)Nc1cnc(N2CCN(C)CC2)nc1 | -1.71 |
| Cc1nccn1CCC1CCCCN1C(=O)c1ccc2[nH]nnc2c1 (stereo not drawn) | -2.88 |
| CC(C)S(=O)(=O)N1CCC(c2cc3n(n2)[C@@H](C(F)(F)F)C[C@@H](C)N3)C1 (stereo partly drawn) | -0.301 |
| Cc1cnn(CC(C)NCc2nc(-c3ccco3)no2)c1 (stereo not drawn) | -7.61 |
| O=C(c1cnccn1)N1CCc2onc(CN3CCOCC3)c2C1 | -1.8 |
| CN(Cc1ccc(Cl)s1)C(=O)NCc1nnc2n1CCC2 | -2.21 |
| CCN1CCN(c2ncc(-c3cc(C)no3)c(-c3ccoc3C)n2)CC1 | -4.09 |
| CCOCC(=O)N1C[C@@H](NC(C)=O)[C@H](c2ccc(OC)cc2)C1 | -0.132 |
| CN(C)C(=O)N1C[C@@H]2CCCO[C@@H]2[C@H](N(C)Cc2ccco2)C1 | -3.04 |
| O=C(NCC(O)c1ccc(F)c(F)c1)c1cccnc1OCC(F)(F)F (stereo not drawn) | -4.25 |
| CCn1c(Nc2ccccc2OC)nc2c(C)nn(C)c2c1=O | -1.82 |

----------
Below: a set of entries, each annotated with reported Percent Effect.
Target Or System: Ubiquitin-activating enzyme e1, putative (Leishmania donovani (strain BPK282A1))
Sequence (whole entry): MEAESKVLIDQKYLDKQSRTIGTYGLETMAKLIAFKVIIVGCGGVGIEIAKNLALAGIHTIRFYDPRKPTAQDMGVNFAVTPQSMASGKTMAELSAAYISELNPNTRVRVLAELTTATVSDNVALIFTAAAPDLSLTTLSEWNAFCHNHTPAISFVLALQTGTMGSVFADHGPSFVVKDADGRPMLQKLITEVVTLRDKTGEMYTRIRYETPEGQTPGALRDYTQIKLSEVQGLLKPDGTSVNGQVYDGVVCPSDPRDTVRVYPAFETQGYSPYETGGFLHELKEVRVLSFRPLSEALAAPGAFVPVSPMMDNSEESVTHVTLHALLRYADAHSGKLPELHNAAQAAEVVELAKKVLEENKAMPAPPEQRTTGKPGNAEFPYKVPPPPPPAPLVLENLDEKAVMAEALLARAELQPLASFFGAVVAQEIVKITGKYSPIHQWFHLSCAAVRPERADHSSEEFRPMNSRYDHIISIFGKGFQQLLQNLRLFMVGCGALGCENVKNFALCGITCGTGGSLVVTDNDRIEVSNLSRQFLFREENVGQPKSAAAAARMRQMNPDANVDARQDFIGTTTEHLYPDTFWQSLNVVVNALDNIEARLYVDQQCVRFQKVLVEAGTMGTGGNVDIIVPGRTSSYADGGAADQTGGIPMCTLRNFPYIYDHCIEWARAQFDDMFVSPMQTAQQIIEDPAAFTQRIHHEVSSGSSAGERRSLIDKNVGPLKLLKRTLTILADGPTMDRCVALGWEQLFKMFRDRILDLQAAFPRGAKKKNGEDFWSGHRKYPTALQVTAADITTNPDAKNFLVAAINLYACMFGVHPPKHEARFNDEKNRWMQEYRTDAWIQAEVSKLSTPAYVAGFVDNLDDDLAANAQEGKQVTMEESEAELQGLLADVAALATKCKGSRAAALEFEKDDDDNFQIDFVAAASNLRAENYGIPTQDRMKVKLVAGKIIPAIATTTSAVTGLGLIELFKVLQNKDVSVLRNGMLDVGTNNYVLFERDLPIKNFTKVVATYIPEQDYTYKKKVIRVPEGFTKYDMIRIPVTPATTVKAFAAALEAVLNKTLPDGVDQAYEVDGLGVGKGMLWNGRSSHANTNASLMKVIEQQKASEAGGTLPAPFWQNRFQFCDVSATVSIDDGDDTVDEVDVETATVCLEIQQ
Test Method Notes: Leishmania donovani Ubiquitin Activating Enzyme (LdE1)
Assay type: functional
Parameters: scale not given: direction of the effect not stated beside the values
Test Settings: 30 µM
Entries with a potency or affinity are not part of this list.

| Molecule | Percent Effect [%] |
| --- | --- |
| CC(C)(C)n1ncc2c1CCCC2NCc1cccc2c1OCO2 (stereo not drawn) | -1.27 |
| Cc1nc(CN(C)C2CCCN(c3cccnn3)C2)no1 (stereo not drawn) | 20.8 |
| O=C(NCc1cccs1)C1CN(C(=O)c2cccs2)CC12CCOCC2 (stereo not drawn) | 8 |
| Cc1nc(C)n(CC2CN(c3ncccn3)Cc3nccn3C2)n1 (stereo not drawn) | 8.11 |
| O=C(N1CCCC1)N1Cc2nccn2CC(CN2CCCC2)C1 (stereo not drawn) | 5.41 |
| CCOCC(=O)N1C[C@@H](NC(C)=O)[C@H](c2ccc(OC)cc2)C1 | 5.33 |
| CNC(=O)[C@H]1CCS(=O)(=O)[C@@H]2CN(Cc3ccc(OC)cc3)C[C@H]12 | 2.7 |
| CC(C)Oc1ncccc1CNC(=O)N1CCC1c1ccccc1 (stereo not drawn) | 13.2 |
| CN(CCNC(=O)NCc1ccncc1)C1CCCC1 | -5.41 |
| CCc1nc(C2CCCN2C(=O)CCNS(C)(=O)=O)no1 (stereo not drawn) | 27 |
| Cc1ccc(CNC(=O)Cn2ncc3c2c(C)nn3C)cc1 | 4 |
| CCCC(NC(=O)c1ccc(OC)cc1F)c1nnn[nH]1 (stereo not drawn) | 5.33 |
| CC(Oc1ccccc1C(F)(F)F)C(=O)NCCC(=O)N(C)C (stereo not drawn) | 8.11 |
| Cc1ccc(C(=O)N2CCC3(CCC(=O)N(CC(N)=O)C3)CC2)c(O)c1 | 4.17 |
| CN(Cc1ncc(C(C)(C)C)o1)C1CCCN(c2cccnn2)C1 (stereo not drawn) | 15.2 |
| CCC1(CC)Cc2ccccc2-c2nc(CN(C)C)nc(O)c21 | 10.5 |
| Oc1nc(N2CCOCC2)nc2c1CCN(Cc1cccnc1)CC2 | 6.76 |
| Cc1ccccc1Cc1cnc(NC(=O)C2CNC(=O)N2)s1 (stereo not drawn) | 3.8 |
| COCCC(=O)N1CCc2cc(Cl)cc(Cl)c2C1 | -44.2 |
| CCc1cnc(CN(C)C2CCN(CCS(C)(=O)=O)C2)o1 (stereo not drawn) | -1.39 |
| CC(C)N(C)Cc1cn2c(n1)CN(Cc1ccsc1)CC2 | 11 |
| COc1ccc(CN2CCC3(CC2)CCN(c2ncccn2)CC3)cc1 | 2.7 |
| CCCS(=O)(=O)Nc1ccc2c(c1)OCC(C)(C)C(=O)N2C | 11 |
| CCCc1cc(NC2CCc3ncnn3C2)n2ncnc2n1 (stereo not drawn) | 5.48 |
| O=C(NCC1CC1)Nc1cccc(N2CCN(CC3CC3)CC2)c1 | 13.5 |
| COC(=O)c1cc(OCC2CCC2)cc(C(=O)N[C@@H]2CNCC[C@H]2O)c1 | 0 |
| COc1cccc(COCC(=O)N2CCC(CC(N)=O)CC2)c1 | 7.89 |
| CCc1noc(CN(C)Cc2ccc(N3CCCCC3)cc2)n1 | 2.6 |
| CC(C)(C)c1cnc(CN2CCCC2Cn2cccn2)o1 (stereo not drawn) | 0 |
| Cc1ccc(NC2CCN(C(=O)COCC(F)(F)F)CC2)nn1 | 6.33 |
| O=C(Nc1cccc(OCc2ccc(F)cc2)c1)C1COCCO1 (stereo not drawn) | -8 |
| O=C(NC1CC1)c1ccc2ccc(N3CCN(CC4CC4)CC3)n2c1 | 9.09 |
| Cc1cccc(C(=O)N(C)Cc2cc(Br)cs2)n1 | 5.26 |
| CCCc1nc(NCCCO)c2c(n1)c(C)nn2CC | 6.67 |
| CC(=O)N1C[C@H](NC(=O)c2cscn2)[C@@H]2OCCC[C@@H]21 | 10.8 |
| NC(=O)C1CCN(Cc2cccc(NC(=O)c3ccsc3)c2)CC1 | 2.67 |
| Cc1ccc(S(=O)(=O)N2C[C@H]3C[C@H](NC(=O)c4ccn(C)n4)[C@H]3C2)cc1 | 17.6 |
| O=C(NCCc1cccc(F)c1)NCC(O)c1cccc(F)c1 (stereo not drawn) | 5.41 |
| CCC(=O)N1CCC(c2nnc(Cn3cncn3)n2C2CC2)CC1 | 15.3 |
| Cc1nnc2n1CCN(C(=O)c1cc(C)n(-c3ccccn3)c1C)C2 | 13.2 |
| CCn1cc(N2Cc3nc(N)ncc3C2=O)cn1 | 12 |
| Cn1ccnc1CN1CCC2(COCCN(Cc3ccsc3)C2)C1 (stereo not drawn) | 13 |
| CCn1cc(CN2CCCN(C(=O)CCc3ccncc3)CC2)cn1 | 26 |
| COCCNS(=O)(=O)c1ccc2c(c1)CCN(C(=O)c1cncn1C)C2 | 6.94 |
| Cc1cc(C)n(CC2CCCN2C(=O)c2ccc3c(c2)OCO3)n1 (stereo not drawn) | 6.33 |
| CCCNC(=O)c1cc2c([nH]c1=O)CC(c1cccs1)CC2=O (stereo not drawn) | 14.7 |
| CN1CCCC(c2cccc(Cc3ccccc3Cl)n2)C1 (stereo not drawn) | -4.05 |
| Cc1n[nH]c(C)c1C1CCCN1C(=O)CNC(=O)C(C)(C)C (stereo not drawn) | 8.22 |
